biological target: Cytochrome P450 3A4 (Homo sapiens); assay: qHTS Assay for Activators of Cytochrome P450 3A4 (AID 885); details: recombinant CYP3A4, Luciferin-PPXE luminescence, 60 min; series mostly up to 57.1 µM; further: nearly all actives have a fitted effect of over 65% in size
Calls of active or inactive are those of the source. The call rests on the fitted dose curve; in most records, active means well fitted activation curve with a large enough effect; inconclusive means small, poorly fitted or top-dose-only effect; inactive means no such curve, though single readings can be large or run the other way.
# valid calls are active, inactive; nothing else

Please review the entries below; each comes with its answer.
INSERT INTO assay_data (compound, assigned_label) VALUES
  ('CS(=O)(=O)N1CCC[C@@]2(CCN(C(c3ccccc3)c3ccccc3)C2)C1', 'inactive'),
  ('COc1ccc(Oc2ncc3nc(-c4cn(C)c5ccccc45)c(=O)n(C)c3n2)cc1', 'inactive'),
  ('C=CC(C1=CC(=O)C(OC)=CC1=O)c1ccccc1 (stereo unspecified)', 'inactive');

## Task Can you look up the reported call for COc1ccccc1CNc1ccnc(-c2c(C)noc2C)n1 for me?
## Result inactive

## Task Hi, sorry to bother you, what did the test record for Cc1noc(C)c1-c1ccc2ncnc(NCCN3CCOCC3)c2c1 ?
## Result inactive

## Task Recorded test outcome, item Cc1noc(C)c1-c1ccc2ncnc(NCc3ccccc3)c2c1
## Result inactive

## Task Give the logged outcome of this assay for the following compound: COCCNc1nc(-c2cccc(NS(C)(=O)=O)c2)nc2ccccc12
## Result inactive
